Here the recorded GI50 is given for each entry.
tested on: SK-MEL-5; assay: NCI tumour cell line growth inhibition, 48 h
Active and inactive are the calls of the source. Cut-off read from the data, not from the text of the source: active = GI50 up to about 1.1 µM and inactive = higher.

// solved cases for GI50 follow
# compound, GI50
records = [
    ("[O-][N+]1=C(c2ccccc2)COc2ccccc21", "> 100 µM (inactive)"),
    ("CC/C=C/c1cc2c(cc1O)CCC1C2CC[C@@]2(C)C1CC[C@@H]2O (some centres not stated)", "1.56 µM (inactive)"),
    ("Nn1c(=O)[nH]c2ncn(Cc3ccccc3)c2c1=O", "> 100 µM (inactive)"),
]

Report the value of GI50 obtained on SK-MEL-5 for COc1cc(OC)c2nc(C)c3c(c2c1)NCC3 . 10 µM (inactive)

Please look at C=C1C(=O)O[C@@H]2[C@H]3O[C@]3(C)CCC=C(C)CC[C@@H]12 and tell me its recorded GI50 on SK-MEL-5. 17.5 µM (inactive)

Report the value of GI50 obtained on SK-MEL-5 for N=C(N)N/N=C/c1c(-c2ccc(Cl)cc2)nc2sc(Cl)cn12 . 1.62 µM (inactive)

Under SK-MEL-5: report GI50 of CC1(c2cccc3ccccc23)OC(=O)c2ccccc21 (configuration not stated) . 13.3 µM (inactive)

Please respond with reported GI50 (system SK-MEL-5) for CCCCNC1=C2C(=O)NN=C2CO1 . > 100 µM (inactive)

Write down the reported GI50 (system: SK-MEL-5) of O=C(O)/C(=C\c1ccncc1)c1cccc2ccccc12 > 100 µM (inactive)

* * *

tested on: UACC-257; assay: NCI tumour cell line growth inhibition, 48 h
The source made the active and inactive calls. Cut-off read from the data, not from the text of the source: active = GI50 up to about 1.1 µM and inactive = higher.
Return exactly one item of TRUE = active, FALSE = inactive

# molecule, answer label
rows = [
    ("COC(=O)/C([Se]c1c(C)cc(C)cc1C)=C(\\[Se]c1c(C)cc(C)cc1C)C(=O)OC", "FALSE"),
    ("CC(=O)Nc1ccc2c3c(cc(O)c2c1)N(C(=O)CCCC(=O)Nc1ccc2c4c(cc(O)c2c1)N(C(=O)OC(C)(C)C)CC4CCl)CC3CCl (stereo not given)", "TRUE"),
    ("C=C1C(=O)O[C@@H]2[C@H]3O[C@]3(C)CCC=C(C)CC[C@@H]12", "FALSE"),
]

Please let me know the test result on file for CN(C)/N=N/c1ccc([N+](=O)[O-])cc1C(N)=O . FALSE

Dear colleague, could you share the recorded outcome for O=C(O)c1cc2ccccc2c(/N=N\c2cc(C(F)(F)F)ccc2Cl)c1O when you have a moment? FALSE

* * *

test system: NCI-H23; experiment: NCI tumour cell line growth inhibition, 48 h
Activity calls are given as the source filed them. Rule as the data show it: active = GI50 up to about 1.1 µM and inactive = higher.
# output must be one of active, inactive

# compound, answer label
records = [
    ("Cc1nn(C)c(=S)n(C)c1=O", "active"),
]

Kindly provide the recorded test outcome for the following compound: O=C(O)[C@H](NS(=O)(=O)c1ccc([N+](=O)[O-])cc1)c1ccccc1 inactive

// param item: Nc1ccc(C(=O)CC2(O)C(=O)Nc3c(Cl)cc(Cl)cc32)cc1 (configuration not stated) ; yields the recorded call inactive

# lookup: test call for CC(=O)Nc1ccc2c3c(cc(O)c2c1)N(C(=O)CCCC(=O)Nc1ccc2c4c(cc(O)c2c1)N(C(=O)OC(C)(C)C)CC4CCl)CC3CCl (configuration not stated) inactive

How did this test come out for CCCC[C@H](CCc1ccccc1)N(C(=O)OC)N1CCC[C@H]1COC ? inactive

What did this assay record as the result for COc1cccc([C@H]2C/C(=N\NC(=O)C(=O)N[C@@H](C)c3ccccc3)c3ccccc3N2)c1 ? inactive

* * *

Catalogue of GI50 readings, one per entry.
tested on: TK-10; assay: NCI tumour cell line growth inhibition, 48 h
Active and inactive are the calls of the source. Rule as the data show it: active = GI50 up to about 1.1 µM and inactive = higher.

# compound, target, GI50
records = [
    ("C=C(C)CC1(O)C(=O)C(OCC)=C1OCC (stereo unspecified)", "TK-10", "> 100 µM (inactive)"),
]

Item CC(C#N)N(CCc1ccccc1)C(=O)c1ccccc1 (stereo unspecified) : provide GI50 > 100 µM (inactive)

Please list GI50 recorded for the compound [O-][S+](Nc1ccccc1)c1cccc(Cl)c1 (stereo unspecified) > 100 µM (inactive)

* * *

test system: HOP-62; assay: NCI tumour cell line growth inhibition, 48 h
Active and inactive are the calls of the source. Rule as the data show it: active = GI50 up to about 1.1 µM and inactive = higher.
reported property: GI50

Known GI50 results, listed for orientation:
# compound, GI50
records = [
    ("CC(=O)N1N=C(c2ccc3ccccc3c2O)CC1c1ccc(Cl)cc1Cl (stereo not given)", "31.9 µM (inactive)"),
    ("O=C(Nc1cccc2ccccc12)Nn1cnnc1", "> 100 µM (inactive)"),
    ("C=C1C(=O)OC2C3OC(C)(CCC(O)C3COC(C)=O)CC(OC(=O)/C(=C/C)COC(C)=O)C12 (stereo not given)", "3.08 µM (inactive)"),
    ("O=[N+]([O-])/C(C(Cl)=C(Cl)Cl)=C(/Nc1cccc2cccnc12)n1nnc2ccccc21", "19.2 µM (inactive)"),
]

Proceeding to the next compound to report its GI50.
Please give the documented GI50 of COC(=O)Nc1nc2cc(NS(=O)(=O)c3ccc(Cl)cc3)ccc2[nH]1 10.7 µM (inactive)

* * *

Recorded GI50 values for a group of compounds are listed next.
tested on: RXF 393; experiment: NCI tumour cell line growth inhibition, 48 h
Calls of active or inactive are those of the source. No stated cut-off is given here; in the data, active = GI50 up to about 1.1 µM and inactive = higher.

# compound, GI50
data = [
    ("O=C(CCc1cc(O)cc(O)c1)NCCc1ccc(O)c(O)c1", "> 100 µM (inactive)"),
    ("COc1ccc(/C=C2\\C=Cc3ccccc32)cc1OC", "50.4 µM (inactive)"),
    ("CCCCC(C(=O)NCCNC(=O)CCC(=O)N(C)O)C(=O)NCCNC(=O)CCC(=O)N(C)O", "> 100 µM (inactive)"),
]

Given the compound COc1cc(OC)c2nc(C)c3c(c2c1)SCC3 , write its reported GI50. 24.3 µM (inactive)

Answer with the recorded GI50 for the compound listed here: O=C(O)c1ccc(NNc2cc(=O)[nH]c(=O)[nH]2)cc1 > 100 µM (inactive)

Please give measured GI50 of the following entry: COc1cc(S(=O)(=O)Nc2nc(-c3ccc(N4C(=O)CSC4c4cccs4)cc3)cs2)ccc1Cl (stereo unspecified) 24.1 µM (inactive)

Fill in GI50 for record O=c1[nH]nc(Cn2c3ccc(Br)cc3c3nc4ccccc4nc32)n1C1CCCCC1 23.8 µM (inactive)

Tell me GI50 reported for COc1ccc2c(c1OCC(=O)O)C(=O)C(CCC(=O)O)CC2 (stereo unspecified) > 100 µM (inactive)

Using the record for CCCCN1CSC(=S)N(Cc2ccccc2)C1 , state its measured GI50. 48 µM (inactive)

Look up and state reported GI50 for Cc1c(N(Cc2ccccc2)Cc2ccccc2)nc(S(C)(=O)=O)nc1S(C)(=O)=O 1.57 µM (inactive)

Give the value of GI50 reported for the following: CC(C)C(Nc1c2ccccc2[n+](C)c2ccccc12)C(=O)O (stereo unspecified) > 100 µM (inactive)

* * *

tested on: SNB-19; assay: NCI tumour cell line growth inhibition, 48 h
Calls of active or inactive are those of the source. Cut-off read from the data, not from the text of the source: active = GI50 up to about 1.1 µM and inactive = higher.
Please state which outcome applies, choosing from active, inactive

# compound, answer label
records = [
    ("C[C@]12Cc3conc3C(O)=C1CC[C@@H]1C2CC[C@@]2(C)C1CC[C@@H]2O (stereo partly drawn)", "inactive"),
    ("O=C1N[C@@H]2CCC[C@@H]2[C@@H]1c1ccc(Cl)cc1", "inactive"),
    ("Nc1nnc(CCC(=O)Nc2cc(Cl)ccc2Cl)n1N", "inactive"),
    ("O=C(OCCOCBr)c1ccccc1", "inactive"),
    ("Cc1ccccc1NC(=O)NC(Oc1ccccc1)(C(F)(F)F)C(F)(F)F", "inactive"),
    ("c1ccc([P+](Cc2ccc(C[P+](c3ccccc3)(c3ccccc3)c3ccccc3)s2)(c2ccccc2)c2ccccc2)cc1", "inactive"),
    ("N#C/C(=C\\c1ccccc1)c1nc(-c2cc3ccccc3oc2=O)cs1", "inactive"),
    ("COc1cc(C2CC(C)(N3CCOCC3)Oc3cc4c(cc32)OCO4)cc(OC)c1OC (stereo not drawn)", "active"),
]

Could you kindly confirm the outcome this assay logged for C[N+](C)([O-])Cc1cc(-c2ccccc2)ccc1O ? inactive

What outcome does the record of this test show for COc1cccc2c1c1ccc3c(c1n2C)C(=O)C=CC3=O ? inactive

Just curious, what result did COc1ccc(-c2c(C(=O)Nc3ccccc3)c(-c3ccccc3)n(C3OC(CO)C(O)C(O)C3O)c(=S)c2C#N)cc1 (stereo not drawn) get here? inactive

Short answer needed: outcome of this test for O=C(CCC(=O)Nc1ccc(Cl)c(Cl)c1)Cc1nc2ccccc2o1 ? inactive

Which result was noted for this compound in the test: CCOC1OCCCC1Br (stereo not drawn) inactive

Dear all, I need the recorded test outcome for Clc1ccc(-c2nc3ccc4ccccc4c3c3c2CCCC3)cc1 , thank you. inactive

Which outcome did this test record for the compound COc1ccc(CC2C3=C(CCN2C(=O)C2CCC2)CC2(CC3)OCCO2)cc1O (stereo not drawn) ? inactive

Hey, what did the test say about O=c1c2c(nc3n1CCC3)sc1c(O)c(Br)ccc12 ? inactive

What outcome does the record of this test show for CCOC(=O)c1ccc2nc3n(c2c1)C(c1c(F)cccc1F)SC3 (stereo not drawn) ? inactive

Field: outcome | Entry: CCc1c(-c2ccccc2)[nH]c2ccccc2c1=O inactive

Record lookup: outcome of this test for CC(=O)O[C@]1(C)CCC2C(C)C(=O)OC2C2C(C)[C@@H](O)CC21 (stereo partly drawn) ? inactive

The reported measurements were obtained from ChEMBL document CHEMBL1201862.
